Test description: Antiproliferative activity against BRCA2 deficient chinese hamster V-C8 cells
Format: functional, Cricetulus griseus
Measurement setup: Cricetulus griseus, V-C8

Compound | Reported relation | CC50 [nM]
CNCc1ccc(-c2ccc3c(Cl)cc(C(N)=O)n3n2)cc1 | = | 2000
CC(C)CC(=O)N1CCN(C(=O)c2ccc(-c3ccc4c(Cl)cc(C(N)=O)n4n3)cc2)CC1 | = | 5750
NC(=O)c1cc(Cl)c2ccc(-c3ccc(CN4CCN(C5CC5)CC4)cc3)nn12 | > | 10000
CC(C)N1CCN(Cc2ccc(-c3ccc4c(Cl)cc(C(N)=O)n4n3)cc2)CC1 | = | 2700
NC(=O)c1cc(Cl)c2ccc(-c3ccc(C(=O)N4CCN(C(=O)C5CC5)CC4)cc3)nn12 | = | 2480
CN1CCc2sc(-c3ccc4c(Cl)cc(C(N)=O)n4n3)cc2C1 | = | 2640
CCN(CC)Cc1ccc(-c2ccc3c(Cl)cc(C(N)=O)n3n2)cc1 | = | 3510
NC(=O)c1cc(Cl)c2ccc(-c3ccc(C(=O)N4CCN(C(=O)C5CC5)CC4)cc3F)nn12 | = | 2310
NC(=O)c1cc(Cl)c2ccc(-c3ccc(C(=O)N4CCNCC4)cc3)nn12 | > | 10000
COC1CCN(C(=O)c2ccc(-c3ccc4c(Cl)cc(C(N)=O)n4n3)cc2)CC1 | = | 4420
CN1CCc2cc(-c3ccc4c(Cl)cc(C(N)=O)n4n3)sc2C1 | = | 3620
CC(C)(C)C1NCCc2cc(-c3ccc4c(Cl)cc(C(N)=O)n4n3)sc21 (stereo not drawn) | = | 2040
NC(=O)c1cc(Cl)c2ccc(-c3ccc(CN4CCCC4)cc3)nn12 | = | 2150
NC(=O)c1cc(Cl)c2ccc(-c3ccc(CN4CCN(c5ccc(C(F)(F)F)cc5)CC4)cc3)nn12 | > | 10000
NC(=O)c1cc(Cl)c2ccc(-c3cc4c(s3)CCNC4)nn12 | = | 1330
CN(C)C1CCN(Cc2ccc(-c3ccc4c(Cl)cc(C(N)=O)n4n3)cc2)CC1 | = | 2780
CN(C)Cc1ccc(-c2ccc3c(Cl)cc(C(N)=O)n3n2)cc1 | = | 6200
NC(=O)c1cc(Cl)c2ccc(-c3ccc(F)c(C(=O)N4CCN(C(=O)C5CC5)CC4)c3)nn12 | = | 7030

====

List of IC50 tested on Poly [ADP-ribose] polymerase 2 (Homo sapiens, UniProt Q9UGN5).
Sequence (Q9UGN5 whole entry): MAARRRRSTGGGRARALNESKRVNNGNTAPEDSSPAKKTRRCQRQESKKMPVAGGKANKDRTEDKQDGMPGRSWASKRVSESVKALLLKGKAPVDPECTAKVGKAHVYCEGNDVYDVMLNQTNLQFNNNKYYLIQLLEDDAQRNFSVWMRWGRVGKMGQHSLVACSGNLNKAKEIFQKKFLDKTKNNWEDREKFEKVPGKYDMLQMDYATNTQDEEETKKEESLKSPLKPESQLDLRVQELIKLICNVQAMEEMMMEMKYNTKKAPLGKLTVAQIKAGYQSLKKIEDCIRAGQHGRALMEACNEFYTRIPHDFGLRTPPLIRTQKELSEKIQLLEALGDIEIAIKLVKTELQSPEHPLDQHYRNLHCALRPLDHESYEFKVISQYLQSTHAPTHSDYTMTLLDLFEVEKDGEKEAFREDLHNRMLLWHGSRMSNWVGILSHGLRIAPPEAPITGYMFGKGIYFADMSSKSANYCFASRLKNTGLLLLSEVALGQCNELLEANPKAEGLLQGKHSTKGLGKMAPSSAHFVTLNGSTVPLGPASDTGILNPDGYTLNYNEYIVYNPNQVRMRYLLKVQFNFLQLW
Measured endpoint: IC50

Compound | Obs value
COC1CCN(C(=O)c2ccc(-c3ccc4c(Cl)cc(C(N)=O)n4n3)cc2)C1 (stereo not given) | 1710 nM
COC1CCN(C(=O)c2ccc(-c3ccc4c(Cl)cc(C(N)=O)n4n3)c(F)c2)C1 (stereo not given) | 1590 nM
COC1CCN(C(=O)c2ccc(-c3ccc4c(Cl)cc(C(N)=O)n4n3)c(F)c2)CC1 | 1640 nM
CC(C)CC(=O)N1CCN(C(=O)c2ccc(-c3ccc4c(Cl)cc(C(N)=O)n4n3)cc2)CC1 | 1010 nM
CNCc1ccc(-c2ccc3c(Cl)cc(C(N)=O)n3n2)cc1 | 1120 nM

====

Subject of test: Poly [ADP-ribose] polymerase 1 (Homo sapiens, UniProt P09874)
Sequence (P09874 whole entry): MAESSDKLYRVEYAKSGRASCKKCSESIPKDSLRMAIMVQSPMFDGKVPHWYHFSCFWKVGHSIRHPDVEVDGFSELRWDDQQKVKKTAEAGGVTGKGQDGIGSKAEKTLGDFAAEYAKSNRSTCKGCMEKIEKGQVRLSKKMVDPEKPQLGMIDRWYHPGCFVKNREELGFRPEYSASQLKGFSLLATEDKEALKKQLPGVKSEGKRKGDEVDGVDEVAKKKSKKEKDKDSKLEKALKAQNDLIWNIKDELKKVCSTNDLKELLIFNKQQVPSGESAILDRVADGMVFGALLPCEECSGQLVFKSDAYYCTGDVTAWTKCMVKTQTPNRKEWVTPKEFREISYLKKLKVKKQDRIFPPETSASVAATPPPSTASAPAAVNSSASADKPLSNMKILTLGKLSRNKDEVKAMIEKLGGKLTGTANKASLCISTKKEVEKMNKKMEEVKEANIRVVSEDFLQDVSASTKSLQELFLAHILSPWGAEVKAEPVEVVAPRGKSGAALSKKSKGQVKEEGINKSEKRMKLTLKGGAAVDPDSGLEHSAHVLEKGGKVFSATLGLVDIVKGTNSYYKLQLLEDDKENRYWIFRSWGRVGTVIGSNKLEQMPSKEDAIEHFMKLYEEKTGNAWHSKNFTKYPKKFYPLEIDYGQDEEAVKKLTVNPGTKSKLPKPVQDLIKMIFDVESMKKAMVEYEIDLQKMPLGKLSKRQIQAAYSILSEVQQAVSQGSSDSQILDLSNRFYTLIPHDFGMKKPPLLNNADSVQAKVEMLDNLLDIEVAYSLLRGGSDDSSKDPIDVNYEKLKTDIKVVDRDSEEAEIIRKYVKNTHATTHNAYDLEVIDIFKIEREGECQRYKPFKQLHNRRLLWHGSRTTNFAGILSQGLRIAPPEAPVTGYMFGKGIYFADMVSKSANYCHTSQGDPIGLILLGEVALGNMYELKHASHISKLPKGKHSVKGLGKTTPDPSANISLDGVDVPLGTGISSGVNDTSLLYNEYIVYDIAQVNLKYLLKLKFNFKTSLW
Label key: Satisfied means IC50 under 200 nM; Not satisfied means IC50 of 200 nM or more.

Molecule | Assigned class
CN(C)C1CCN(Cc2ccc(-c3ccc4c(Cl)cc(C(N)=O)n4n3)cc2)CC1 | Not satisfied
NC(=O)c1cc(Cl)c2ccc(-c3ccc(F)c(C(=O)N4CCN(C(=O)C5CC5)CC4)c3)nn12 | Satisfied
NC(=O)c1cc(Cl)c2ccc(-c3ccc(C(=O)N4CCN(C(=O)C5CC5)CC4)cc3)nn12 | Not satisfied
COC1CCN(C(=O)c2ccc(-c3ccc4c(Cl)cc(C(N)=O)n4n3)c(F)c2)C1 (stereo not given) | Not satisfied
NC(=O)c1cc(Cl)c2ccc(-c3cc4c(s3)CCNC4)nn12 | Satisfied
NC(=O)c1cc(Cl)c2ccc(-c3ccc(C(=O)N4CCNCC4)cc3)nn12 | Not satisfied
NC(=O)c1cc(Cl)c2ccc(-c3ccc(C(=O)N4CCN(C(=O)C5CC5)CC4)cc3F)nn12 | Not satisfied
NC(=O)c1cc(Cl)c2ccc(-c3ccc(CN4CCN(c5ccc(C(F)(F)F)cc5)CC4)cc3)nn12 | Not satisfied
COC1CCN(C(=O)c2ccc(-c3ccc4c(Cl)cc(C(N)=O)n4n3)cc2)C1 (stereo not given) | Not satisfied
COC1CCN(C(=O)c2ccc(-c3ccc4c(Cl)cc(C(N)=O)n4n3)c(F)c2)CC1 | Satisfied
